Listed here: compounds with reported pIC50 for Acetylcholinesterase (Electrophorus electricus, UniProt O42275).
pIC50: −log10 of the molar value.

- compound_structure_string: "COc1cc(-c2cc3c(c(=O)o2)C[C@]2(O)[C@@]4(C)C(=O)C=C[C@@](C)(CO)[C@]4(O)CC[C@@]2(C)O3)cc(OC)c1OC"
  pIC50: 9.37
- compound_structure_string: "COc1cc(-c2cc3c(c(=O)o2)C[C@]2(O)[C@@]4(C)C(=O)C=C[C@](C)(CO)[C@]4(O)CC[C@@]2(C)O3)cc(OC)c1OC"
  pIC50: 6.10
- compound_structure_string: "C=CC[N+](C)(C)c1ccc(CCC(=O)CCc2ccc([N+](C)(C)CC=C)cc2)cc1"
  pIC50: 8.00
